Listed binders paired with reported Binding Level sample 2 - sample 1 (RU)
- TGT: T1, recombinant human OX40L (extracellular domain, R&D Systems) (human, UniProt P23510 51-183)
- T1 construct: also called hOX40L; rec. hOX40L
- T1 sequence: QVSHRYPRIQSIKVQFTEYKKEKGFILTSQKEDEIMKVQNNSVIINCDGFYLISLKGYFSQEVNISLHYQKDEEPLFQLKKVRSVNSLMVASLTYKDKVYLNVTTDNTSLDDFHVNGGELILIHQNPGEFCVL
- ASSAY_TEXT: SPR, second injection after competitor OX40L01B11
Answer in RU, number only, no unit symbol.

// below: answered binders
{"BINDER": "OX40L01E07 (VHH, monovalent Nanobody from E. coli; not shown: C-terminal c-myc and His6 tag) VHH: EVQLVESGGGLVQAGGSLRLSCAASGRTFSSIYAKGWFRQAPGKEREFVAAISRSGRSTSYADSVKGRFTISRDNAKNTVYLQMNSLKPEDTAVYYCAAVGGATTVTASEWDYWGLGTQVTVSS", "UOM": "RU", "VALUE_OBSERVED": 194}
{"BINDER": "OX40L15B07 (VHH, monovalent Nanobody from E. coli; not shown: C-terminal c-myc and His6 tag) VHH: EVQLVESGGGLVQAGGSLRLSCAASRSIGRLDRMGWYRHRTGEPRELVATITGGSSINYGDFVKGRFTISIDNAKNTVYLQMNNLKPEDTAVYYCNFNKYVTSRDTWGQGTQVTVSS", "UOM": "RU", "VALUE_OBSERVED": -9}
{"BINDER": "OX40L19A07 (VHH, monovalent Nanobody from E. coli; not shown: C-terminal c-myc and His6 tag) VHH: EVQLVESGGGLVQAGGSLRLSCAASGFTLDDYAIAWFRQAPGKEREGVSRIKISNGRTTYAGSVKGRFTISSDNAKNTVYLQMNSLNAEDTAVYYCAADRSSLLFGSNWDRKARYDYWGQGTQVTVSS", "UOM": "RU", "VALUE_OBSERVED": 70}

Kindly consider the entry below.
So what's the measured Binding Level sample 2 - sample 1 (RU) for this one? OX40L19D08 (VHH, monovalent Nanobody from E. coli; not shown: C-terminal c-myc and His6 tag) VHH: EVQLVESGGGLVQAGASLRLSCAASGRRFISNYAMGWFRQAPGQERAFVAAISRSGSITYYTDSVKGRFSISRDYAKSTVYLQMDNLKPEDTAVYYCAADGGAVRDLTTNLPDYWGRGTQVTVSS
159
